test system: MCF-7 ER positive breast carcinoma cells; assay: Inhibition of cell proliferation (3H-thymidine incorporation); assay type: cell-based, human; details: 3 or 4 days, 3H-thymidine 2 h
Measure Name: pIC50
Quick note: pIC50 values are minus log10 of concentrations in mol/L.

Exercise: Bench note: what pIC50 did CC1(C)CC[C@]2(C(=O)O)CC[C@]3(C)[C@H](C(=O)C=C4[C@@]5(C)C=C(C#N)C(=O)C(C)(C)[C@@H]5CC[C@]43C)[C@@H]2C1 [Compound 6] show?
Solution: 7.52

* * *

test system: SW626 ovarian carcinoma cells; assay: Inhibition of cell proliferation (3H-thymidine incorporation); type: cell-based, human; conditions: SW626 (Smad4/DPC4 mutation); 3 or 4 days, 3H-thymidine 2 h
Measure Name: pIC50
Quick note: pIC50 values are minus log10 of concentrations in mol/L.

Exercise: Bench note: what pIC50 did CC1(C)CC[C@]2(C(=O)O)CC[C@]3(C)[C@H](C(=O)C=C4[C@@]5(C)C=C(C#N)C(=O)C(C)(C)[C@@H]5CC[C@]43C)[C@@H]2C1 show?
Solution: 6.52
